assay: qHTS Assay for Spectroscopic Profiling in A350 Spectral Region; conditions: Compound autofluorescence, 340/450 nm, Alexa 350 dye-equivalents
In all, about 59,000 compounds went through this assay and about 6,500 (11%) were called active. Another 15% or so got no clear call; they are omitted. Rule as the data show it: active = max dye-equivalent concentration above about 10 nM; inconclusive = mostly about 1.1 nM to 9.6 nM; inactive = weaker than that. Many of the other results were omitted from the sample, so actives are more common in it than they were.
Outcome codes: active, inactive

>>> print(df.to_string())
                                    compound  category_label
 0             CNC(=O)n1ccc(C(=O)N2CCCCC2)n1        inactive
 1  CC(C)Cc1ccc(S(=O)(=O)N2CCN(C(=O)c3ccco3)CC2)cc1        inactive
 2  CC(C)OCCCNC(=O)C1CC(=O)N(C2CCCCCCC2)C1 (stereo not drawn)        inactive
 3         COc1c(F)c(F)c(-c2csc(N)n2)c(F)c1F          active
 4  Cc1cc(C)n(-c2nc(SCC(=O)N3CCCC3)c3c4c(sc3n2)CCCC4)n1        inactive
 5  COc1ccc(CCN(C)CCN2C(=O)c3ccccc3C2=O)cc1OC        inactive
 6  Cn1c(SCC(=O)Nc2cccc(NC(=O)c3cccs3)c2)nnc1-c1ccncc1        inactive
 7                O=C(CCOc1ccccc1)NCc1ccccc1        inactive
 8         Cc1ccccc1NC(=O)CNc1ccccc1N1CCCCC1        inactive
 9        Cn1c(/C(C#N)=C2/CCCCCN2)nc2ccccc21          active
10  COCCNc1nc(-n2nc(C)cc2C)nc2sc3c(c12)CCCC3          active
11  COc1ccc(C)cc1-n1nnnc1SCC(=O)c1cc(C)n(Cc2ccco2)c1C        inactive
12  O=C(CCCN1C(=O)CCC1=O)Nc1ccc(Cl)c(C(F)(F)F)c1        inactive
13    Cc1cnc(CNc2nc(-c3cccnc3)nc3ccccc23)cn1        inactive
14  O=C(CN1CCOCC1)N1CCCc2c1c(=O)oc1ccc(OCc3ccccc3)cc21          active
15  COc1ccc(NC(=O)N2CC3(CCN(C(C)=O)CC3)C2)cc1        inactive
16        Cc1cccc(C(=O)Nc2ccc(CC(=O)O)cc2)c1        inactive
17      CCCCNc1nc2ccccc2nc1NS(=O)(=O)c1cccs1          active
18        N#C/C(=C1\CCCN1)c1nc(-c2ccccc2)cs1        inactive
19  CN1CCN(c2ncc3nc(-c4ccc(Cl)cc4)c(=O)n(-c4ccccc4)c3n2)CC1          active
20  Cc1ccc2c(c1)sc1ncc(NC(=O)c3ccccc3)c(=O)n12          active
21  CC(=O)N1CCN(C(=O)c2cccc(S(=O)(=O)Nc3ccc(C)cc3)c2)CC1        inactive
22  O=C(c1ccc2c(c1)C(=O)N(c1ccc(Cl)cc1)C2=O)N1CCN(c2ccccn2)CC1        inactive
23  COc1ccc(CCN2C(=O)c3[nH]nc(-c4ccccc4O)c3C2c2ccc(C)cc2)cc1OC (stereo not drawn)          active
24         COC(=O)N1CN(C(=O)OC)CN(C(=O)OC)C1        inactive
25               CCOC(=O)c1cc2cc(C)ccc2[nH]1        inactive
26  CCOc1ccc2nc(N3CCCN(C(=O)Nc4ccccc4C)CC3)c(C#N)cc2c1          active
27                CCNCc1cc2cc(C)ccc2[nH]c1=O          active
28            O=S(=O)(c1cccs1)N1CCc2ccccc2C1        inactive
29             CCn1c2c(c3ccc(OC)cc31)CCCC2=O          active
30           Cc1[nH]c2ccccc2c1C(=O)CSCC(=O)O        inactive
31  CCOC(=O)c1csc(NC(=O)c2ccc(S(=O)(=O)N3CCCC3)cc2)n1        inactive
32  O=C(COc1ccc(F)cc1)N(CC1=CCS(=O)(=O)C1)c1ccccc1        inactive
33  Cc1ccnc(N2CCCC(C(=O)Nc3cc(F)ccc3C)C2)n1 (stereo not drawn)        inactive
34        O=C(OCCN1CCOCC1)C1(c2ccccc2)CCCCC1        inactive
35  CC1CCCC(NC(=O)CSc2nccn2C)C1C (stereo not drawn)        inactive
36  Cc1ccc2[nH]c(=O)c(-c3nc4c(C)cccn4c3NCc3ccco3)cc2c1        inactive
37     Cc1ccc(S(=O)(=O)NCc2cn3ccsc3n2)c(C)c1        inactive
38  COc1ccc(-c2n[nH]c(C)c2-c2ccc(OC)c(OC)c2)c(O)c1        inactive
39  COCCn1c(C)cc(C(=O)CSc2ncnc3sc4c(c23)CCC4)c1C        inactive
40  Cn1cc(-c2nc3cncnc3n(-c3ccccc3)c2=O)c2ccccc21        inactive
41       O=S(=O)(c1cccs1)N1CCN(Cc2ccccc2)CC1        inactive
42           CCOc1ccc(NC(=O)N2CCN(CC)CC2)cc1        inactive

====

assay: qHTS Assay for Spectroscopic Profiling in A350 Spectral Region; conditions: Compound autofluorescence, 340/450 nm, Alexa 350 dye-equivalents
The whole screen tested about 59,000 compounds, of which about 6,500 (11%) were called active. Not shown: some 15% with an inconclusive outcome. Cut-off read from the data, not from the text of the source: active = max dye-equivalent concentration above about 10 nM; inconclusive = mostly about 1.1 nM to 9.6 nM; inactive = weaker than that. Many of the other results were omitted from the sample, so actives are more common in it than they were.
Classes used: Yes (active), No (inactive)

>>> df
                                    compound  category_label
 0  CCOC(=O)c1c(NC(=O)CCC(=O)NCc2ccco2)sc2c1CCCC2              No
 1  Cc1ccc(-c2c3c(=O)n(C)c(=O)n(C)c3cn2-n2cnnc2)cc1              No
 2            O=C(c1ccccc1-c1ccccc1)N1CCOCC1              No
 3  Cc1cccn2c(=O)c3cc(C(=O)N4COCC4(C)C)n(C)c3nc12             Yes
 4            COc1c(C(=O)N2CCCC2)ccc2ccccc12              No
 5  FC(F)(F)c1ccccc1-c1nc(-n2ccnc2)c2ccccc2n1              No
 6  CC(=O)NC(Cc1ccc(F)cc1)C(=O)O (stereo unspecified)              No
 7  O=C(Cn1cnc2c(cnn2-c2ccccc2)c1=O)NCc1ccccc1              No
 8  CCC(=O)Nc1ccc(C(=O)Nc2ccc3c(c2)C(=O)N(CC2CCCO2)C3=O)cc1 (stereo unspecified)             Yes
 9  Cn1c(=O)[nH]c(=O)c2c1nc(N1CCCCCC1)n2CC(=O)c1ccccc1              No
10  O=C1NC(c2ccncc2)Nc2sc3c(c21)CCCC3 (stereo unspecified)             Yes
11  O=C(Nc1cc(C(F)(F)F)ccc1Cl)c1cc(C2CC2)on1              No
12  O=C(Nc1nc2cc3c(cc2s1)OCCO3)c1cccc(S(=O)(=O)N2CCOCC2)c1             Yes
13       CCc1cc2c(=O)c(-c3ccon3)c(N)oc2cc1OC              No
14  C=C(C)c1cccc(C(C)(C)NC(=O)N2CCN(c3ncccn3)CC2)c1              No
15  COC(=O)c1ccc(CSc2nc3ccccc3c(=O)n2-c2cccc(OC)c2)o1              No
16       Cc1noc(C)c1COC(=O)Cn1c(C)nc2ccccc21              No
17  CCOc1ccc2nc(NC(=O)CSc3nc4c(c(=O)n(C)c(=O)n4C)n3CC)sc2c1              No
18  CC(=O)Oc1ccc2c(C)c(CC(C)O)c(=O)oc2c1 (stereo unspecified)             Yes
19           CNC(=O)c1cc2c(ccc3ccccc32)oc1=N             Yes
20  COc1ccccc1Cn1c(=S)[nH]c2cc(C(=O)N3CCN(C)CC3)ccc2c1=O              No
21  Cc1c(O)c(Br)c(C)c(O)c1Br (tested in a mixture with another compound)              No
22  CC(C)(CSc1nncn1/N=C/c1ccco1)NS(=O)(=O)c1ccc(Cl)cc1              No
23  CCCC(=O)N1c2ccc(-c3csc(N)n3)cc2CC1C (stereo unspecified)              No
24  CCn1c(=O)cc(SCC(=O)NCc2ccc3c(c2)OCO3)c2ccccc21              No
25  O=C(CCN1C(=O)c2ccncc2C1=O)Nc1ccc2c(c1)OCCO2              No
26  COCCNC(=O)CN(C(=O)CCC(=O)Nc1cc(C)on1)c1ccc(C)cc1C              No
27      COc1ccccc1-c1nnc(SCC(=O)Nc2ccccc2)o1              No
28    CCNC(=O)CCc1nc(-c2ccc(C(C)(C)C)cc2)no1              No
29  Cc1cccc(-n2c(N)cc(=O)nc2SC(C)C(=O)NC2CCCCC2)c1 (stereo unspecified)              No
30         Cc1ccc(Cc2nc(-c3cccc(C)c3)no2)cc1              No
31  CCN1CCCC1CNc1ncnc2c1[nH]c1ccc(F)cc12 (stereo unspecified)             Yes
32  COc1ccc(N(C(=O)c2cccnc2)S(=O)(=O)c2ccc3c(c2)n(C)c(=O)n3C)cc1              No
33  Cc1cccn2c(=O)c3cc(C(=O)NCc4ccccn4)n(C)c3nc12             Yes
34  O=C(Nc1nc2ccc(S(=O)(=O)N3CCCC3)cc2s1)C1CCCO1 (stereo unspecified)              No
35  COc1ccc(-c2c3c(=O)n(C)c(=O)n(C)c3cn2NC(C)=O)cc1             Yes
36     CCCCC(=O)Nc1cc(C)c2c(=O)oc3ccccc3c2n1              No
37  COc1ccc(OC)c(-n2cc3c(=O)n(C)c(=O)n(C)c3c2)c1              No
38       COCC(=O)N1CCC2(CCCN(c3ccccc3)C2)CC1              No
39  CCOc1ccc(OCC)c(NC(=O)C2CCN(S(=O)(=O)c3c(C)noc3C)CC2)c1              No
40  CCOC(=O)N1CCN(C(=O)c2cc3c(ccc4ccccc43)oc2=O)CC1             Yes
